These data points were gathered from patent US20170101472A1.

Reported t1/2 values are given for each entry in this list.
Molecular target: T1, recombinant human LAG3 expressed with a C-terminal mouse IgG2a mFc tag (human)
T1 construct: Called dimeric; also called hLAG3-mFc; hLAG3 dimer
T1 chain: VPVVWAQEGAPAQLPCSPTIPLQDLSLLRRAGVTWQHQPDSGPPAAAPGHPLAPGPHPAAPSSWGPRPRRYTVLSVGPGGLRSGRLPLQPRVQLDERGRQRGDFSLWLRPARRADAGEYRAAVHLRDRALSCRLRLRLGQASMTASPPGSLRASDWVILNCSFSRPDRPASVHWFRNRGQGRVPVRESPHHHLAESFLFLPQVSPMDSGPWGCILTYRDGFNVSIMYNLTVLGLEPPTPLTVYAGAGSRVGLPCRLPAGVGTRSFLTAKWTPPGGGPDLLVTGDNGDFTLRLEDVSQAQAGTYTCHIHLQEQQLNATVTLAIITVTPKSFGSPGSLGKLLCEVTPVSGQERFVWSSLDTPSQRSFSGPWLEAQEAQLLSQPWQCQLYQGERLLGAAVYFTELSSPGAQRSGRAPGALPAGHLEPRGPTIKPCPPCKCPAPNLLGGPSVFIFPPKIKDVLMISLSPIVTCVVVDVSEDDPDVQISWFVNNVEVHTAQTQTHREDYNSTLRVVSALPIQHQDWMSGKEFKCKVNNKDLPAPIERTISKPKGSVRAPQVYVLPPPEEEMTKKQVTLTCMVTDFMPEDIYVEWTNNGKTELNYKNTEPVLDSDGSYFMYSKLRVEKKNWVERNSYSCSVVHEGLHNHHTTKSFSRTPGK
Assay: SPR, mAb captured, 37 C
measured.metric: t1/2 (h)

binder	reported.relation	recorded.result
H4sH14813N (antibody, human IgG4 S228P, kappa, V domains shown, H4sH = modified human IgG4 Fc) VH: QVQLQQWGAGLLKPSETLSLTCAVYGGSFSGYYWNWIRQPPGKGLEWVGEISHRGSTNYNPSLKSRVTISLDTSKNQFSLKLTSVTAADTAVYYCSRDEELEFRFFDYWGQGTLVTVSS VL: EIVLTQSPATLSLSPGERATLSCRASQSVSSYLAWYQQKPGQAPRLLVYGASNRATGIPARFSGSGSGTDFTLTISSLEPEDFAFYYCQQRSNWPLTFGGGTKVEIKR	=	1.91
H4sH15479P (antibody, V domains shown) VH: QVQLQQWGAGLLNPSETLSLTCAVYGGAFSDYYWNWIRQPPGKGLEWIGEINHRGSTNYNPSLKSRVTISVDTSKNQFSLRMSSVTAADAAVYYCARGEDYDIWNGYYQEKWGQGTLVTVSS VL: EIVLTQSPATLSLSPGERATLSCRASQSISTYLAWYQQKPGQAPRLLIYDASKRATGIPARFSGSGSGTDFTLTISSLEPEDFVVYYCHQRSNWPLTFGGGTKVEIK	≥	19.2
H4H14813N (antibody, human IgG4, V domains shown, H4H = human IgG4 Fc with S108P hinge mutation) VH: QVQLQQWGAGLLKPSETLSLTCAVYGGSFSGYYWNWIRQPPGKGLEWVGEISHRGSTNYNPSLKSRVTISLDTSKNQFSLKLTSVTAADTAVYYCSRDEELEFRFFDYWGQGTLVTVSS VL: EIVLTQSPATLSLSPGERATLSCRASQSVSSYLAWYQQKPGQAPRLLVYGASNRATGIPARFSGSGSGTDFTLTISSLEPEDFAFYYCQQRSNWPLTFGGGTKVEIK	=	1.65
H4H17823P (antibody, human IgG4, V domains shown, H4H = human IgG4 Fc with S108P hinge mutation) VH: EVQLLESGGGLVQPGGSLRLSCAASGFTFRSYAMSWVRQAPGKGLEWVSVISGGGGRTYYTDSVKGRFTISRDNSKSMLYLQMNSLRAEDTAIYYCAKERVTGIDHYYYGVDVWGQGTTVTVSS VL: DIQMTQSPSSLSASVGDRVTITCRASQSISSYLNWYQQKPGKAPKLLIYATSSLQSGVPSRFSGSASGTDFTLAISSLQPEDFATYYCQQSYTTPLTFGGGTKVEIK	=	0.328
H4H17819P (antibody, human IgG4, V domains shown, H4H = human IgG4 Fc with S108P hinge mutation) VH: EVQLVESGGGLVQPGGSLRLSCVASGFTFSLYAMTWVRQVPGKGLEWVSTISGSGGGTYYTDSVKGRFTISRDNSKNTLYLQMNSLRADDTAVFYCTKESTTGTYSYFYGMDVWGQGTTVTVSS VL: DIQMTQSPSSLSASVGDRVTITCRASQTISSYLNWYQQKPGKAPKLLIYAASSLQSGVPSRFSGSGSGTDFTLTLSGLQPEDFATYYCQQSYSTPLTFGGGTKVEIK	=	0.365
